# System name: DNMT1 (Homo sapiens, UniProt P26358)
Property name: IC50

// query Item: CCc1c(N(CC)C2CCOCC2)cc2oc(CN3CCCCC3)cc2c1C(=O)NCc1c(C)cc(C)[nH]c1=O Test system: DNMT1 (Homo sapiens, UniProt P26358) Read-out: IC50 Value: ?
// result > 100 µM

###

# System name: MLL (Homo sapiens)
Property name: IC50

// query IC50 lookup needed for CCc1c(N(CC)C2CCOCC2)cc2oc(CN3CCCCC3)cc2c1C(=O)NCc1c(C)cc(C)[nH]c1=O , thanks.
// result > 100 µM

###

Protein target, amino acids: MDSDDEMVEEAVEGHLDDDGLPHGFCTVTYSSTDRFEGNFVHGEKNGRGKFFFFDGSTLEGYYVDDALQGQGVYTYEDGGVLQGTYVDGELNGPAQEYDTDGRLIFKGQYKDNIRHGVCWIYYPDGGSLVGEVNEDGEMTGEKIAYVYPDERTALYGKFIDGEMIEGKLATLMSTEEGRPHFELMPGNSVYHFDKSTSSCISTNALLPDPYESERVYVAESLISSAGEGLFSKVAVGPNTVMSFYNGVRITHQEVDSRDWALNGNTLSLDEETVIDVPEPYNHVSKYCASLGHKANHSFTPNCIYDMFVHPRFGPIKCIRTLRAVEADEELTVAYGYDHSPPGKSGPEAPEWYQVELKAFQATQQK
pIC50: −log10 of the molar value.
Property name: pIC50

// query pIC50 lookup needed for CCc1c(N(CC)C2CCOCC2)cc2oc(CN3CCCCC3)cc2c1C(=O)NCc1c(C)cc(C)[nH]c1=O [SHR2554] , thanks.
// result < 4.00

###

# System name: MLL3 (Homo sapiens)
pIC50: −log10 of the molar value.
Property name: pIC50

// query pIC50 lookup needed for CCc1c(N(CC)C2CCOCC2)cc2oc(CN3CCCCC3)cc2c1C(=O)NCc1c(C)cc(C)[nH]c1=O , thanks.
// result < 4.00

###

# System name: DNMT3a (Homo sapiens)
# Sequence (Q9Y6K1 whole entry, looked up): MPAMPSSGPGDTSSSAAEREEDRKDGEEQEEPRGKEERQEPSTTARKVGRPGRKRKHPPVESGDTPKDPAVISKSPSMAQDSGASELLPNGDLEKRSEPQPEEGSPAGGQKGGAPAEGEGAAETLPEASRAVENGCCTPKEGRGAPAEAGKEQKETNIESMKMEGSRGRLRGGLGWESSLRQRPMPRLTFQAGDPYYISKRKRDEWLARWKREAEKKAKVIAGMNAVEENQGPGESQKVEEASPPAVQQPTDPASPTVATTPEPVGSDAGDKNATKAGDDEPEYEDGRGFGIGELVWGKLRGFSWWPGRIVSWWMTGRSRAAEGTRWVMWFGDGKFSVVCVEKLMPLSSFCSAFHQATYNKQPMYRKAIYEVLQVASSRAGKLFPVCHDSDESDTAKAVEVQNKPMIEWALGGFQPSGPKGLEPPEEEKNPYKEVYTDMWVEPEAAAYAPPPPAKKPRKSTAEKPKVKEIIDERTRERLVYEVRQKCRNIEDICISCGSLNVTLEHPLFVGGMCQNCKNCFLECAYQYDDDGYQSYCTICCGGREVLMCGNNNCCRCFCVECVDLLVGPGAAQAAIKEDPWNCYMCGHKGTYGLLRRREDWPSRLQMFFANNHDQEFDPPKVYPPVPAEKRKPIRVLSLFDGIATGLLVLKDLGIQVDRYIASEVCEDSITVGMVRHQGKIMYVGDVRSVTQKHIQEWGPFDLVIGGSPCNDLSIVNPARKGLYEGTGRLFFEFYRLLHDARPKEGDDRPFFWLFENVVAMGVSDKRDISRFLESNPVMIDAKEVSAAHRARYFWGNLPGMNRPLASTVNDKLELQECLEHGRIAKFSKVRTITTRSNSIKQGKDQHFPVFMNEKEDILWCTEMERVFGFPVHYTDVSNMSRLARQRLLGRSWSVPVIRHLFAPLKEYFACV
pIC50: −log10 of the molar value.
Property name: pIC50

// query pIC50 lookup needed for CCc1c(N(CC)C2CCOCC2)cc2oc(CN3CCCCC3)cc2c1C(=O)NCc1c(C)cc(C)[nH]c1=O , thanks.
// result < 4.00

###

# System name: PRMT3 (Homo sapiens)
# Sequence (O60678 whole entry): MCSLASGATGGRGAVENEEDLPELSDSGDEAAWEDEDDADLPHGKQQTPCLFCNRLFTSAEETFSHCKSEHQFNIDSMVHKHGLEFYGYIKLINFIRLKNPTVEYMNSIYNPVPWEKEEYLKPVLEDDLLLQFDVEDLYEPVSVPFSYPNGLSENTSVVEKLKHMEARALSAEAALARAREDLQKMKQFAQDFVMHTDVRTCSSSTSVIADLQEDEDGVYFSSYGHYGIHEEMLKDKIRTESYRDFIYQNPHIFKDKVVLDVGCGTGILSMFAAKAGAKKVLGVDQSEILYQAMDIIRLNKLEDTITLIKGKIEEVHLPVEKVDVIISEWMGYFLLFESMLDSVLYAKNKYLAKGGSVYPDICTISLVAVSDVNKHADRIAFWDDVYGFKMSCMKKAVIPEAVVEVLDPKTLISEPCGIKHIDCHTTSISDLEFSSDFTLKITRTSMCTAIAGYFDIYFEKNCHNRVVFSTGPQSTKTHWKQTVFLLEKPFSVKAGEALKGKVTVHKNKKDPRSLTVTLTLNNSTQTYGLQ
pIC50: −log10 of the molar value.
Property name: pIC50

// query pIC50 lookup needed for CCc1c(N(CC)C2CCOCC2)cc2oc(CN3CCCCC3)cc2c1C(=O)NCc1c(C)cc(C)[nH]c1=O , thanks.
// result < 5.00

###

# System name: SETD2 (Homo sapiens)
# Sequence (Q9BYW2 whole entry): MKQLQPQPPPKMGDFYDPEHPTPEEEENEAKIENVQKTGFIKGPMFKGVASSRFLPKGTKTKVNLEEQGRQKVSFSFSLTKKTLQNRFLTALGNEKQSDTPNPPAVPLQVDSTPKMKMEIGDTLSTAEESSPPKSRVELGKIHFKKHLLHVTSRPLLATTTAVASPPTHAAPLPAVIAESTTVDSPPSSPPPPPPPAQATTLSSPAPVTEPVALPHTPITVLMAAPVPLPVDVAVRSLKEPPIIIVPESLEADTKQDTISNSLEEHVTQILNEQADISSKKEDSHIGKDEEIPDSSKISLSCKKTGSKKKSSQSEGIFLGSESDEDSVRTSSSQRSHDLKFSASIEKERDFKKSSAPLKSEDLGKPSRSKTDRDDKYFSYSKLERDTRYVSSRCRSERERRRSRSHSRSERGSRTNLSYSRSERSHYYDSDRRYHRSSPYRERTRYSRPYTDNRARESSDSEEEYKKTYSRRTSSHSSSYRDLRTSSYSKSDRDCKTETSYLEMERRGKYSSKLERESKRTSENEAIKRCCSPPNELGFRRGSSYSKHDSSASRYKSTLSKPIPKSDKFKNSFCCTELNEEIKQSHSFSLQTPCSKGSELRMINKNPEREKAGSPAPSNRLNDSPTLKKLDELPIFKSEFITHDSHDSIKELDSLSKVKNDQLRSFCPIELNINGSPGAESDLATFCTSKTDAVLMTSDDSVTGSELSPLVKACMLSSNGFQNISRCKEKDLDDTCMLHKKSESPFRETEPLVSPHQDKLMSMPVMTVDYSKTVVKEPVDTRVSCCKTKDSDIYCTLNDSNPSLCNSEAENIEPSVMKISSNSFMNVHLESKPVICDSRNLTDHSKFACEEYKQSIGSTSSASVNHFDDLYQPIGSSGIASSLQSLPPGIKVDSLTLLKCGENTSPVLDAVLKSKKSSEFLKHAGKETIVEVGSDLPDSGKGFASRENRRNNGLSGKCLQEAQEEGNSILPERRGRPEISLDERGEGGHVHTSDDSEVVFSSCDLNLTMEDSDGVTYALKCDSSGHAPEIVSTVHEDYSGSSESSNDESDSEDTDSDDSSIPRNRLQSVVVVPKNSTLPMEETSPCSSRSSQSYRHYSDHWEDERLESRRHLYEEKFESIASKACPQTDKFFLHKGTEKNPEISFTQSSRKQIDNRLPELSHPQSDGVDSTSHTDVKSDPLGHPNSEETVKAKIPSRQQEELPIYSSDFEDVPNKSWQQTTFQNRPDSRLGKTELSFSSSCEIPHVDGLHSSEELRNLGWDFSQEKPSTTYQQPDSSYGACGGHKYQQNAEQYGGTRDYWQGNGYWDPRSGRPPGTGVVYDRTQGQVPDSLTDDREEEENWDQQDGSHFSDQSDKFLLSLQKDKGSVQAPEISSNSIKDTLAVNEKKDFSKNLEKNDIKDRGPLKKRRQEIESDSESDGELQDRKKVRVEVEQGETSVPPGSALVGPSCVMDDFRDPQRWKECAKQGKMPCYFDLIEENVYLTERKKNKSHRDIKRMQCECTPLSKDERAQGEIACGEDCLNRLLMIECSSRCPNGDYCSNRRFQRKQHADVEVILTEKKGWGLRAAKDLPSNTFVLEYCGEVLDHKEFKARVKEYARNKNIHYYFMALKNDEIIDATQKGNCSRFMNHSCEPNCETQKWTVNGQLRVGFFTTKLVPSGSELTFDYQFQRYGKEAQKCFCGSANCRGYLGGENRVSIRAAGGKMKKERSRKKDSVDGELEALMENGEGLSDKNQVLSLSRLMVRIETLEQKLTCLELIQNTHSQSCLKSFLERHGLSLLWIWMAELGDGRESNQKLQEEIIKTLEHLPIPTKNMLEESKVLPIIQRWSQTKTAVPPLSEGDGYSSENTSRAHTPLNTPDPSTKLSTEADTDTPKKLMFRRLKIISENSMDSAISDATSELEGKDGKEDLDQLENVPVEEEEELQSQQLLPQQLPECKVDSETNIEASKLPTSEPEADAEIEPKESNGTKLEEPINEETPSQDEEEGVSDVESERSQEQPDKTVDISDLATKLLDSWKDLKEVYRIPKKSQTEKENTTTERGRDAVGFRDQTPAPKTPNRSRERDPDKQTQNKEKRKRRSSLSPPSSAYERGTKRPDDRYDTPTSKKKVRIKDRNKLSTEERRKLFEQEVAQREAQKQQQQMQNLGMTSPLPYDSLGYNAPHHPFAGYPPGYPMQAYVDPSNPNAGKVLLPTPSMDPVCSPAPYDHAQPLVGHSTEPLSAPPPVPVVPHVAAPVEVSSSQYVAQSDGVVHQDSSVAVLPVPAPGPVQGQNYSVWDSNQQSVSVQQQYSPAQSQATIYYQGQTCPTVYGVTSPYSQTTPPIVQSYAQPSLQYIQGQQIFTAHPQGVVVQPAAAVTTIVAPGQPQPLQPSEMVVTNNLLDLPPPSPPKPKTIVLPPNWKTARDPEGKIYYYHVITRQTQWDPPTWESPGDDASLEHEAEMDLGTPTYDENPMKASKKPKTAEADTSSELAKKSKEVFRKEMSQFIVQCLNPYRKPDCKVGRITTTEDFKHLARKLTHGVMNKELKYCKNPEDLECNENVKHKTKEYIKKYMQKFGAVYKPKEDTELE
Property name: IC50

// query IC50 lookup needed for CCc1c(N(CC)C2CCOCC2)cc2oc(CN3CCCCC3)cc2c1C(=O)NCc1c(C)cc(C)[nH]c1=O [SHR2554] , thanks.
// result > 100 µM

###

# System name: EZH1 (Homo sapiens)
Property name: pIC50
A value of pIC50 is the negative decimal logarithm of a concentration given in moles per litre.

// query pIC50 lookup needed for CCc1c(N(CC)C2CCOCC2)cc2oc(CN3CCCCC3)cc2c1C(=O)NCc1c(C)cc(C)[nH]c1=O , thanks.
// result 7.72

###

# System name: PRMT1 (Homo sapiens, UniProt Q99873)
# Sequence (Q99873 whole entry): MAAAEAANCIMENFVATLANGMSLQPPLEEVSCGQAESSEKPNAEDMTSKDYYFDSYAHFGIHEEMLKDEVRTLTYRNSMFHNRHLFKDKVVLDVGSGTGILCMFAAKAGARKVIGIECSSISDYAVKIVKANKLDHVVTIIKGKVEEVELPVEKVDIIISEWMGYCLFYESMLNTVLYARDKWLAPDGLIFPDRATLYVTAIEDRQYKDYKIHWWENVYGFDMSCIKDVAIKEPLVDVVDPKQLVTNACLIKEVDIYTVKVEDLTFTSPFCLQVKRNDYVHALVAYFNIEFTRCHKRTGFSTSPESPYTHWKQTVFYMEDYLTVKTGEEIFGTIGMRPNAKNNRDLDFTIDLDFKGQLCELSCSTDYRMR
Property name: IC50

// query Item: CCc1c(N(CC)C2CCOCC2)cc2oc(CN3CCCCC3)cc2c1C(=O)NCc1c(C)cc(C)[nH]c1=O Test system: PRMT1 (Homo sapiens, UniProt Q99873) Read-out: IC50 Value: ?
// result > 100 µM
